Origin of the recorded values: ChEMBL document CHEMBL4346654

Please provide measured MBC for the entries that follow.
Test system: Staphylococcus aureus
assay: Bactericidal activity against MLS/methicillin-resistant Staphylococcus aureus PU 32 expressing inducible ermA gene pretreated followed by subculture in absence of compound measured after 24 hrs
Format: functional

Lab note: measured MBC of `CC[C@H]1OC(=O)[C@@](C)(F)C(=O)[C@H](C)[C@@H](O[C@@H]2O[C@H](C)C[C@H](N(C)C)[C@H]2O)[C@](C)(OC/C=C/c2ccc3c(c2)c(=O)c(C(=O)NC)cn3CC)C[C@@H](C)/C(=N\OC)[C@H](C)[C@H]2OC(=O)O[C@@]21C` was > 2 µg/mL

Given item `CC[C@H]1OC(=O)[C@@](C)(F)C(=O)[C@H](C)[C@@H](O[C@@H]2O[C@H](C)C[C@H](N(C)C)[C@H]2O)[C@](C)(OC)C[C@@H](C)/C(=N\OCC#Cc2ccc3[nH]ccc(=O)c3c2)[C@H](C)[C@H]2OC(=O)O[C@@]21C` , the value recorded as its MBC is 8 µg/mL

// sample `CC[C@H]1OC(=O)[C@@](C)(F)C(=O)[C@H](C)[C@@H](O[C@@H]2O[C@H](C)C[C@H](N(C)C)[C@H]2O)[C@](C)(OC)C[C@@H](C)/C(=N\OCC#Cc2ccc3c(c2)c(=O)c(C(=O)NC)cn3C2CC2)[C@H](C)[C@H]2OC(=O)O[C@@]21C` , its MBC was > 8 µg/mL

Record summary for `CC[C@H]1OC(=O)[C@@](C)(F)C(=O)[C@H](C)[C@@H](O[C@@H]2O[C@H](C)C[C@H](N(C)C)[C@H]2O)[C@](C)(OC)C[C@@H](C)/C(=N\OC/C=C/c2cncc(C(N)=O)c2)[C@H](C)[C@H]2OC(=O)O[C@@]21C` : reported MBC = > 2 µg/mL

====

Tested on: Staphylococcus aureus
assay: Bactericidal activity against MLS/methicillin-resistant Staphylococcus aureus PU 32 expressing inducible ermA gene pretreated followed by subculture in absence of compound measured after 24 hrs
Type: functional
measure: MBC

Entry under test: `CC[C@H]1OC(=O)[C@@](C)(F)C(=O)[C@H](C)[C@@H](O[C@@H]2O[C@H](C)C[C@H](N(C)C)[C@H]2O)[C@](C)(OC)C[C@@H](C)/C(=N\OCC#Cc2cncc(N)c2)[C@H](C)[C@H]2OC(=O)O[C@@]21C` . Its MBC was > 4 µg/mL

What the record says about `CC[C@H]1OC(=O)[C@@](C)(F)C(=O)[C@H](C)[C@@H](O[C@@H]2O[C@H](C)C[C@H](N(C)C)[C@H]2O)[C@](C)(OC)C[C@@H](C)/C(=N\OC/C=C/c2ccc3[nH]cc(C(=O)O)c(=O)c3c2)[C@H](C)[C@H]2OC(=O)O[C@@]21C` : MBC is 16 µg/mL

Lookup result for `CC[C@H]1OC(=O)[C@@](C)(F)C(=O)[C@H](C)[C@@H](O[C@@H]2O[C@H](C)C[C@H](N(C)C)[C@H]2O)[C@](C)(OC/C=C/c2cncc(C(N)=O)c2)C[C@@H](C)/C(=N\OC)[C@H](C)[C@H]2OC(=O)O[C@@]21C` ; measured MBC: > 1 µg/mL

In plain terms, `CC[C@H]1OC(=O)[C@@](C)(F)C(=O)[C@H](C)[C@@H](O[C@@H]2O[C@H](C)C[C@H](N(C)C)[C@H]2O)[C@](C)(OC)C[C@@H](C)/C(=N\OC/C=C/c2cncc(C(=O)O)c2)[C@H](C)[C@H]2OC(=O)O[C@@]21C` has a documented MBC of > 64 µg/mL

MBC reading for `CC[C@H]1OC(=O)[C@H](C)C(=O)[C@H](C)[C@@H](O[C@@H]2O[C@H](C)C[C@H](N(C)C)[C@H]2O)[C@](C)(OC)C[C@@H](C)C(=O)[C@H](C)[C@H]2N(CCCCn3cnc(-c4cccnc4)c3)C(=O)O[C@]12C` : ≥ 1 µg/mL

// MBC lookup, compound = `CC[C@H]1OC(=O)[C@@](C)(F)C(=O)[C@H](C)[C@@H](O[C@@H]2O[C@H](C)C[C@H](N(C)C)[C@H]2O)[C@](C)(OC)C[C@@H](C)/C(=N\OCC#Cc2ccc3c(c2)c(=O)c(C(=O)O)cn3C2CC2)[C@H](C)[C@H]2OC(=O)O[C@@]21C` , result: 4 µg/mL

MBC measured on `CC[C@H]1OC(=O)[C@@](C)(F)C(=O)[C@H](C)[C@@H](O[C@@H]2O[C@H](C)C[C@H](N(C)C)[C@H]2O)[C@](C)(OC/C=C/c2ccc3c(c2)c(=O)c(C(=O)NC)cn3C2CC2)C[C@@H](C)/C(=N\OC)[C@H](C)[C@H]2OC(=O)O[C@@]21C` = > 8 µg/mL

MBC for `CC[C@H]1OC(=O)[C@@](C)(F)C(=O)[C@H](C)[C@@H](O[C@@H]2O[C@H](C)C[C@H](N(C)C)[C@H]2O)[C@](C)(OC)C[C@@H](C)/C(=N\OC/C=C/c2ccc3c(c2)c(=O)c(C(=O)NC)cn3CC)[C@H](C)[C@H]2OC(=O)O[C@@]21C` is > 16 µg/mL

Input `CC[C@H]1OC(=O)[C@@](C)(F)C(=O)[C@H](C)[C@@H](O[C@@H]2O[C@H](C)C[C@H](N(C)C)[C@H]2O)[C@](C)(OC/C=C/c2cncc(C(=O)O)c2)C[C@@H](C)/C(=N\OC)[C@H](C)[C@H]2OC(=O)O[C@@]21C` . Output MBC: > 16 µg/mL

Documented MBC of `CC[C@H]1OC(=O)[C@@](C)(F)C(=O)[C@H](C)[C@@H](O[C@@H]2O[C@H](C)C[C@H](N(C)C)[C@H]2O)[C@](C)(OC/C=C/c2ccc3ncc(C(=O)O)cc3c2)C[C@@H](C)/C(=N\OC)[C@H](C)[C@H]2OC(=O)O[C@@]21C` : 0.5 µg/mL

Item: `CC[C@H]1OC(=O)[C@@](C)(F)C(=O)[C@H](C)[C@@H](O[C@@H]2O[C@H](C)C[C@H](N(C)C)[C@H]2O)[C@](C)(OC/C=C/c2ccc3c(c2)c(=O)c(C(N)=O)cn3CC)C[C@@H](C)/C(=N\OC)[C@H](C)[C@H]2OC(=O)O[C@@]21C` | MBC: > 2 µg/mL

Consider `CC[C@H]1OC(=O)[C@@](C)(F)C(=O)[C@H](C)[C@@H](O[C@@H]2O[C@H](C)C[C@H](N(C)C)[C@H]2O)[C@](C)(OC)C[C@@H](C)/C(=N\OC/C=C/c2ccc3[nH]ccc(=O)c3c2)[C@H](C)[C@H]2OC(=O)O[C@@]21C` . Its measured MBC is > 8 µg/mL

====

System: Haemophilus influenzae
assay: Antibacterial activity against azithromycin-susceptible Haemophilus influenzae ATCC 49247 assessed as reduction in microbial growth by CLSI based two-fold broth dilution method
Format: functional
Field: MIC. Provide a value for each of the molecules that follow.
Please reply with the bare figure in µg/mL and do not write the unit itself.

Notebook: `CC[C@H]1OC(=O)[C@@](C)(F)C(=O)[C@H](C)[C@@H](O[C@@H]2O[C@H](C)C[C@H](N(C)C)[C@H]2O)[C@](C)(OC)C[C@@H](C)/C(=N\OCC#Cc2cncc(C(N)=O)c2)[C@H](C)[C@H]2OC(=O)O[C@@]21C` , MIC read as 16

Short answer for `CC[C@H]1OC(=O)[C@@](C)(F)C(=O)[C@H](C)[C@@H](O[C@@H]2O[C@H](C)C[C@H](N(C)C)[C@H]2O)[C@](C)(OC)C[C@@H](C)/C(=N\OCC#Cc2ccc3c(c2)c(=O)c(C(N)=O)cn3C2CC2)[C@H](C)[C@H]2OC(=O)O[C@@]21C` : MIC was 32

Lab note: measured MIC of CC[C@H]1OC(=O)[C@H](C)C(=O)[C@H](C)[C@@H](O[C@@H]2O[C@H](C)C[C@H](N(C)C)[C@H]2O)[C@](C)(OC)C[C@@H](C)C(=O)[C@H](C)[C@H]2N(CCCCn3cnc(-c4cccnc4)c3)C(=O)O[C@]12C [TELITHROMYCIN] was 4

The reported value for `CC[C@H]1OC(=O)[C@@](C)(F)C(=O)[C@H](C)[C@@H](O[C@@H]2O[C@H](C)C[C@H](N(C)C)[C@H]2O)[C@](C)(OC)C[C@@H](C)/C(=N\OCC#Cc2cncc(N)c2)[C@H](C)[C@H]2OC(=O)O[C@@]21C` in terms of MIC is 16

Note to self: MIC recorded for `CC[C@H]1OC(=O)[C@@](C)(F)C(=O)[C@H](C)[C@@H](O[C@@H]2O[C@H](C)C[C@H](N(C)C)[C@H]2O)[C@](C)(OC)C[C@@H](C)/C(=N\OCC#Cc2ccc(N)nc2)[C@H](C)[C@H]2OC(=O)O[C@@]21C` was 16

Lab note: `CC[C@H]1OC(=O)[C@@](C)(F)C(=O)[C@H](C)[C@@H](O[C@@H]2O[C@H](C)C[C@H](N(C)C)[C@H]2O)[C@](C)(OC)C[C@@H](C)/C(=N\OC/C=C/c2ccc3c(c2)c(=O)c(C(=O)NC)cn3CC)[C@H](C)[C@H]2OC(=O)O[C@@]21C` gave MIC of 128

Reported MIC for `CC[C@H]1OC(=O)[C@@](C)(F)C(=O)[C@H](C)[C@@H](O[C@@H]2O[C@H](C)C[C@H](N(C)C)[C@H]2O)[C@](C)(OC)C[C@@H](C)/C(=N\OC/C=C/c2cncc(N)c2)[C@H](C)[C@H]2OC(=O)O[C@@]21C` was 8
